Assayed Target: Voltage-gated potassium channel subunit beta-2 (Rattus norvegicus) (UniProt P62483)
Sequence (P62483 whole entry, looked up): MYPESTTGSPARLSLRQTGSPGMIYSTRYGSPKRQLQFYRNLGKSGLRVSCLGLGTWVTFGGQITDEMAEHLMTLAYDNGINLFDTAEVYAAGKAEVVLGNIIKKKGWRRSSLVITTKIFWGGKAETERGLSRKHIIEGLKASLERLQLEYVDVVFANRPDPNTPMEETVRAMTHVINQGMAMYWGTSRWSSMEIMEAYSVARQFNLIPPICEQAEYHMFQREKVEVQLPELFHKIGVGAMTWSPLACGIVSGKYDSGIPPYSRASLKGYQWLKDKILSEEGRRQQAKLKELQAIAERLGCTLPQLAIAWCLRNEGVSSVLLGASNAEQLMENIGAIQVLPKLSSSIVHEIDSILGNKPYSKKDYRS
Experiment Summary: inhibitors of rat Kvbeta2 reductase activity – biochemical, NADPH fluorescence, primary screen (AID 622);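 also: slope of raw intensity against log time taken from 70 to 1610 s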
Cond: recombinant KvBeta, 4-cyanobenzaldehyde reduction, at 10 µM, hits give high values
Binned fluorescence slope; ranges: lo: < -0.5; mid: ≥ -0.5 and < -0.4; hi: ≥ -0.4

Recorded results for 3 compounds are shown here.
Compound	Class Name
O=C(NCc1ccco1)C1CCN(S(=O)(=O)N2CCC3(CC2)OCCO3)CC1	hi
CCC(=O)c1cc(F)c(N2CCN(C(=O)c3ccco3)CC2)cc1C	lo
CCc1ccc(C(=O)NC2CCCCC2)s1	lo

Each compound maps to one class by fluorescence slope. Which class for `Cc1cccc(N(CC(=O)N2CCCC2)S(=O)(=O)c2ccccc2)c1C` ?
mid

Consider `O=C(c1ccc2ccccc2n1)N1CCN(c2ccccc2)CC1` . To which fluorescence slope class does it belong?
mid

Dear colleague, I would appreciate it if you could identify the bin for `O=C(NCCSCc1ccco1)Nc1cccc(Cl)c1` and reply at your convenience.
lo

Hi, small favor: classify `O=C(NCCN1CCOCC1)c1ccc(CS(=O)(=O)Cc2ccccc2F)o1` by its fluorescence slope when you get a moment.
mid

Into which category would you place `O=C(O)CSc1ncn[nH]1` ?
mid

Tag the class for `O=C(CN1C(=O)CSC1=O)Nc1ccc(N2CCOCC2)cc1`
lo

Which bin, given its fluorescence slope, does `Cc1ccc(CS(=O)(=O)Cc2ccc(C(=O)NCc3ccccn3)o2)cc1` occupy?
hi
